// data source = the supplement of paper PMC7380943

- Test system: CLZ3 (HCA2 human fibroblast dual HR-NHEJ reporter)
- ASSAY NOTES: NHEJ repair efficiency (GFP+ cells) relative to control (log10 fold); higher = more non-homologous end joining
- CONDITION SET: 5 µM; doxycycline 0.5 ug/mL
REPORTED METRIC: NHEJ repair efficiency (log10)

[
  {
    "MOLECULE": "O=C(O)c1cc(O)c(O)c(O)c1",
    "OBS VALUE": 0.0481
  },
  {
    "MOLECULE": "O=C(/C=C/c1ccc(O)c(O)c1)O[C@@H]1CC(O)(C(=O)O)C[C@@H](OC(=O)/C=C/c2ccc(O)c(O)c2)C1O (stereo partly specified)",
    "OBS VALUE": 0.0485
  },
  {
    "MOLECULE": "CCCCCCCCCCCCCCCCCC(=O)OC [Methyl Stearate]",
    "OBS VALUE": -0.0143
  },
  {
    "MOLECULE": "COC(=O)c1c2c(c3ccccc3c1O)OC(C)(C)C=C2",
    "OBS VALUE": 0.0202
  },
  {
    "MOLECULE": "CC(/C=C/C=C(\\C)C(=O)O[C@@H]1O[C@H](CO[C@@H]2O[C@H](CO)[C@@H](O)[C@H](O)[C@H]2O)[C@@H](O)[C@H](O)[C@H]1O)=C\\C=C\\C=C(C)\\C=C\\C=C(/C)C(=O)O[C@@H]1O[C@H](CO[C@@H]2O[C@H](CO)[C@@H](O)[C@H](O)[C@H]2O)[C@@H](O)[C@H](O)[C@H]1O",
    "OBS VALUE": -0.0374
  },
  {
    "MOLECULE": "C[C@@H]1CC[C@]2(C(=O)O[C@@H]3O[C@H](CO)[C@@H](O)[C@H](O)[C@H]3O)CC[C@]3(C)C(=CC[C@@H]4[C@@]5(C)CC[C@H](O)[C@@](C)(CO)[C@@H]5CC[C@]43C)[C@@H]2[C@]1(C)O [Pedunculoside]",
    "OBS VALUE": 0.0473
  },
  {
    "MOLECULE": "CC(/C=C/C=C(\\C)C(=O)O[C@@H]1O[C@H](CO)[C@@H](O)[C@H](O)[C@H]1O)=C\\C=C\\C=C(C)\\C=C\\C=C(/C)C(=O)O[C@@H]1O[C@H](CO[C@@H]2O[C@H](CO)[C@@H](O)[C@H](O)[C@H]2O)[C@@H](O)[C@H](O)[C@H]1O",
    "OBS VALUE": -0.0199
  },
  {
    "MOLECULE": "Cn1c(=O)c2c(ncn2CC2OCCO2)n(C)c1=O",
    "OBS VALUE": 0.101
  },
  {
    "MOLECULE": "O=C(CCc1ccc(O)cc1)c1c(O)cc(O)cc1O[C@@H]1OC(CO)[C@@H](O)[C@@H](O)C1O (stereo partly specified)",
    "OBS VALUE": -0.0404
  },
  {
    "MOLECULE": "O=C(O)/C=C/c1ccc(O)cc1",
    "OBS VALUE": 0.1
  },
  {
    "MOLECULE": "COc1cc(-c2cc(=O)c3c(O)c(OC)c(O)cc3o2)ccc1O",
    "OBS VALUE": -0.028
  },
  {
    "MOLECULE": "O=c1c(O)c(-c2ccc(O)c(O)c2)oc2cc(O)cc(O)c12",
    "OBS VALUE": -0.047
  },
  {
    "MOLECULE": "CCCCCCC[C@H](O)CC(=O)CCc1ccc(O)c(OC)c1",
    "OBS VALUE": 0.00172
  },
  {
    "MOLECULE": "O=c1cc(-c2ccc(O)cc2)oc2c([C@@H]3O[C@H](CO)[C@@H](O)[C@H](O)[C@H]3O)c(O)cc(O)c12",
    "OBS VALUE": 0.172
  },
  {
    "MOLECULE": "O=C(O)c1cc(O)c2c(c1)[C@H]([C@H]1c3cc(CO)cc(O)c3C(=O)c3c(O[C@@H]4O[C@H](CO)[C@@H](O)[C@H](O)[C@H]4O)cccc31)c1cccc(O[C@@H]3O[C@H](CO)[C@@H](O)[C@H](O)[C@H]3O)c1C2=O [Sennoside C]",
    "OBS VALUE": -0.0248
  },
  {
    "MOLECULE": "CCCCC[C@H](O)CC(=O)CCc1ccc(O)c(OC)c1",
    "OBS VALUE": -0.0809
  },
  {
    "MOLECULE": "OC[C@H]1O[C@@H](O[C@@H]2OC=C[C@H]3[C@H](O)[C@@H]4O[C@]4(CO)[C@@H]23)[C@H](O)[C@@H](O)[C@@H]1O",
    "OBS VALUE": 0.0212
  },
  {
    "MOLECULE": "Cc1cc(O)c2c(c1)C(=O)c1cccc(O)c1C2=O",
    "OBS VALUE": 0.0473
  },
  {
    "MOLECULE": "C[C@@H]1O[C@@H](OC[C@H]2O[C@@H](Oc3cc(O)c4c(c3)O[C@H](c3ccc(O)c(O)c3)CC4=O)[C@H](O)[C@@H](O)[C@@H]2O)[C@H](O)[C@H](O)[C@H]1O",
    "OBS VALUE": 0.00276
  },
  {
    "MOLECULE": "C=C1C[C@]2(O)O[C@@]3(CC2=C(C)C)[C@@H](C)CC[C@@H]13",
    "OBS VALUE": -0.116
  },
  {
    "MOLECULE": "COc1cc(-c2oc3cc(O)cc(O)c3c(=O)c2O[C@@H]2O[C@H](CO)[C@@H](O)[C@H](O)[C@H]2O)ccc1O [Isorhamnetin-3-O-Glucoside]",
    "OBS VALUE": -0.0722
  },
  {
    "MOLECULE": "C=C1C[C@@]23CC[C@H]4[C@@](C)(CCC[C@@]4(C)C(=O)O[C@@H]4O[C@H](CO)[C@@H](O)[C@H](O)[C@H]4O)[C@@H]2CC[C@]1(O[C@@H]1O[C@H](CO)[C@@H](O)[C@H](O)[C@H]1O[C@@H]1O[C@H](CO)[C@@H](O)[C@H](O)[C@H]1O)C3 [Stevioside]",
    "OBS VALUE": 0.149
  },
  {
    "MOLECULE": "COc1cc2c(c(OC)c1OC)-c1c(cc(OC)c(OC)c1OC)C[C@H](C)[C@H](C)C2",
    "OBS VALUE": -0.121
  },
  {
    "MOLECULE": "COc1ccc2cc1Oc1ccc(cc1)C[C@H]1c3cc(c(OC)cc3CCN1C)Oc1c(OC)c(OC)cc3c1[C@H](C2)N(C)CC3",
    "OBS VALUE": 0.294
  },
  {
    "MOLECULE": "COc1cc(CNC(=O)CCCC/C=C/C(C)C)ccc1O",
    "OBS VALUE": -0.0748
  },
  {
    "MOLECULE": "CC(C)=C1CC[C@@H](C)CC1=O",
    "OBS VALUE": 0.114
  }
]

###

- System: CLZ3 (HCA2 human fibroblast dual HR-NHEJ reporter);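 also: compound given one day ahead of doxycycline, which switches on I-SceI endonuclease to cut the chromosomally integrated reporter and create DSBs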
- ASSAY NOTES: NHEJ repair efficiency (GFP+ cells) relative to control (log10 fold); higher = more non-homologous end joining
- CONDITION SET: 5 µM; doxycycline 0.5 ug/mL
Below, each entry is listed alongside its reported NHEJ repair efficiency (log10).
REPORTED METRIC: NHEJ repair efficiency (log10)

[
  {
    "COMPOUND": "CC(C)=CC(O)C/C(C)=C/COc1c2ccoc2cc2oc(=O)ccc12 (stereo unspecified)",
    "OBS VALUE": 0.0643
  },
  {
    "COMPOUND": "C/C(=C\\C(=O)CC(C)C(=O)O)[C@H]1CC(=O)[C@@]2(C)C3=C(C(=O)C[C@]12C)[C@@]1(C)CC[C@H](O)C(C)(C)[C@@H]1C[C@@H]3O (stereo partly specified)",
    "OBS VALUE": 0.000561
  },
  {
    "COMPOUND": "COc1cc(-c2oc3cc(O)cc(O)c3c(=O)c2O[C@@H]2O[C@H](CO)[C@@H](O)[C@H](O)[C@H]2O[C@@H]2O[C@@H](C)[C@H](O)[C@@H](O)[C@H]2O)ccc1O",
    "OBS VALUE": -0.039
  },
  {
    "COMPOUND": "O=c1c(O)c(-c2ccc(O)c(O)c2)oc2cc(O)ccc12",
    "OBS VALUE": -0.223
  },
  {
    "COMPOUND": "C[C@@H]1CC[C@@]2(OC1)O[C@H]1C[C@H]3[C@@H]4CC=C5C[C@@H](O[C@@H]6O[C@H](CO)[C@@H](O)[C@H](O)[C@H]6O)CC[C@]5(C)[C@H]4CC[C@]3(C)[C@H]1[C@@H]2C [Diosgenin glucoside]",
    "OBS VALUE": -0.0975
  },
  {
    "COMPOUND": "COc1cc2c(c(OC)c1OC)-c1c(cc3c(c1OC)OCO3)C[C@H](C)[C@@](C)(O)C2",
    "OBS VALUE": -0.0319
  }
]
